- Tested on: narcotized dog
- TEST DESCRIPTION: Hemodynamic parameters in the narcotized dog
- Format: in vivo
- CONDITIONS USED: 0.03 mg/kg p.o.
- Method: C. Hemodynamic parameters in the narcotized dog: […] There is thus obtained not only an overall picture of the activity of the substance, but also an estimation as to the potential selectivity for a specific part of the circulatory system in the entire organism. […] Blood pH, pCO2, pO2 and hemoglobin are measured hourly with a blood-gas analyzer. The blood pressure (systolic and diastolic) is measured with a probe in the aorta abdominalis. […]
METRIC NAME: CBF coronary blood flow, maximum variation from initial value (Δ%)
One number for each entry, in %.

Worked cases, answers included:
Please look up its CBF coronary blood flow, maximum variation from initial value (Δ%): CC1=C(C(=O)CS(=O)(=O)NC(C)C)C(c2cc(Cl)ccc2Cl)C(C(=O)OC(C)C)=C(C)N1 (stereo not drawn)
104

What would you report for CC1=C(C(=O)CS(=O)(=O)NC(C)C)C(c2cc([N+](=O)[O-])ccc2Cl)C(C(=O)OC(C)C)=C(C)N1 (stereo not drawn) ?
68

What would you report for CCCOCCOC(=O)C1=C(C)NC(C)=C(C(=O)CS(=O)(=O)NC(C)C)C1c1cccc([N+](=O)[O-])c1 (stereo not drawn) ?
56

Give CBF coronary blood flow, maximum variation from initial value (Δ%) for each of the items listed below.
1. CCNS(=O)(=O)CC(=O)C1=C(C)NC(C)=C(C(=O)OC(C)C)C1c1cccc([N+](=O)[O-])c1 (stereo not drawn)
2. CNS(=O)(=O)CC(=O)C1=C(C)NC(C)=C(C(=O)OC(C)C)C1c1cccc([N+](=O)[O-])c1 (stereo not drawn)
3. CC1=C(C(=O)CS(=O)(=O)NC(C)C)[C@H](c2cccc([N+](=O)[O-])c2)C(C(=O)O[C@@H](C)c2ccccc2)=C(C)N1

1: 98; 2: 120; 3: 57
